B1: PRAME (parent)
chain: KKLKIFAMPMQDIKMILKMVQLDS

variants of: B1; assay: protein stability index of a GFP-peptide fusion (GPS, HEK-293T) (PSI 1-6); higher = more stable; settings: c terminus: a fixed tail appended;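 note: lentivirally expressed fusions sorted by FACS into six bins by GFP to DsRed ratio, PSI derived from sequencing read proportions per bin multiplied by bin number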
Entry flag: criterion met if protein stability index reaches 2; criterion not met if it does not.

KKLKIFPMPMQDIKMILKMVQLDS [A7P] | criterion met

IN: In plain terms: is recorded protein stability index at least 2 for KKLKIFAMPMQDIKMILKMVQCDS [L22C] ?
OUT: criterion not met

IN: For this variant, is measured protein stability index 2 or higher? KKLKILAMPMQDIKMILKMVQLDS [F6L]
OUT: criterion met

All values here come from the supplement of paper PMC10567573.
